Just for reference, paper PMC5464773 is where these values come from.

# system name: Bfl-1 (Homo sapiens, UniProt Q16548)
# Construct: c-myc
# Sequence (Q16548 whole entry): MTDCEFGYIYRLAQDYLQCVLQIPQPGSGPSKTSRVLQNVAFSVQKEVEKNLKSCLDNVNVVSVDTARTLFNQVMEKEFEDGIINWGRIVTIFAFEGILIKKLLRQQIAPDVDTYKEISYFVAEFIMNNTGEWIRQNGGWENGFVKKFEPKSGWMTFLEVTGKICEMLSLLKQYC
# test: Competition fluorescence polarization (anisotropy) with fluoresceinated BIM
# Assay type: binding
# details: competition FP source data; replicate 3
Readings of Ki (M) Bfl-1 for the listed substances
# number only, unit M dropped from output

# example entries with known answers
Ac-QWVREIAAQLRRMADDLNAQYER-NH2 [FS2_N/Puma_C]    6.37e-07
Ac-RPVIWIAQGLRRAGDEVNAYVAR-NH2 [BIM-FS2]    5.89e-07
Ac-QWVREIAAGLRRAADDVNAQVER-NH2 [FS2]    1.4e-08

Note: attention shifts to another entry.
Ask | // Input: Ac-QWVREIAAGLRLAADNVNAQLER-NH2 [FS1] . Output its Ki (M) Bfl-1 only.
Reply | 1.22e-08
